TARGET_SYSTEM: UniProtKB Q15761
Sequence (Q15761 whole entry): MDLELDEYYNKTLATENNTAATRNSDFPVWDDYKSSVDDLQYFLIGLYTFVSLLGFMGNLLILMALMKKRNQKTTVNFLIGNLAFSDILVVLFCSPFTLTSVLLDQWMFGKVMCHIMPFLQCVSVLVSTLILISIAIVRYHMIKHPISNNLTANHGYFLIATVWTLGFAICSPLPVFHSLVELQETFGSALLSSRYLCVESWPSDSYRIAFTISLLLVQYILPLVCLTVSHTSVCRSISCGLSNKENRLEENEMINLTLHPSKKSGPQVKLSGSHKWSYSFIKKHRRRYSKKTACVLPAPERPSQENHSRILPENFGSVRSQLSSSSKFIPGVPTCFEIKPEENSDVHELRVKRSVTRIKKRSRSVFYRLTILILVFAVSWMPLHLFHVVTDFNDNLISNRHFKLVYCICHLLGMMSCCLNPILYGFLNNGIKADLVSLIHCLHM
PROTOCOL: Human NPY5 Receptor Binding Assay
TEST_CONDITIONS: [125I]PYY; read-out: hNPY5 IC50
pIC50: −log10 of the molar value.
PROPERTY_LABEL: pIC50

O=C(CSc1ncnc2ccccc12)Nc1ccc(C2CCCCC2)cc1 :: < 6.00
Nc1nc(SCC(=O)Nc2ccc(C3CCCCC3)cc2)n[nH]1 :: < 6.00

Moving on to another compound below.
Complete the entry with pIC50 for O=C(CSc1nccc(C(F)(F)F)n1)Nc1ccc(C2CCCCC2)cc1 < 6.00
